biological target: KRas^G12V (Homo sapiens, UniProt P01116, G12V); construct: […]; biotin (biotinylated); assay: KRas binding assay (TR-FRET displacement of Cy5 labelled tracer)
Sequence (P01116 1-169 isoform P01116-2 G12V): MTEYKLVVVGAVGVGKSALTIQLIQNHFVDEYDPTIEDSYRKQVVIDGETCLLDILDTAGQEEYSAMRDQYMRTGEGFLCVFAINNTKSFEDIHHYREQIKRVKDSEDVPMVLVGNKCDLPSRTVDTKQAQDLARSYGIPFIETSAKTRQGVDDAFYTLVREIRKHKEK
pIC50: −log10 of the molar value.
ENDPOINT_NAME: pIC50

[[record]]
compound = "Oc1cc(N2CCc3c(nc(OC[C@@]45CCCN4C[C@H](F)C5)nc3N3CC4CC(O)CC3C4)C2)c2c(Br)c(F)ccc2c1 (single isomer, unassigned) [Example 213]"
endpoint_name = "pIC50"
bound_sign = "="
experimental_result = 8.52

[[record]]
compound = "CCc1cccc2cccc(N3CCc4c(nc(OCC56CCCN5CCC6)nc4N4CCCC(c5nc(=O)[nH][nH]5)C4)C3)c12 (centres unmarked)"
endpoint_name = "pIC50"
bound_sign = "="
experimental_result = 6.07

[[record]]
compound = "CCc1cccc2cccc(N3CCc4c(nc(OCC56CCCN5CCC6)nc4N4CCC(CO)C(O)C4)C3)c12 (centres unmarked)"
endpoint_name = "pIC50"
bound_sign = "="
experimental_result = 6.30

[[record]]
compound = "CCc1cccc2cccc(N3CCc4c(nc(OCC56CCCN5CCC6)nc4N4CCCC(CO)CC4)C3)c12 (centres unmarked)"
endpoint_name = "pIC50"
bound_sign = "="
experimental_result = 6.39

[[record]]
compound = "CCc1c(F)ccc2cccc(N3CCc4c(nc(OCC56CCCN5CCC6)nc4N4CCC[C@@](C)(O)C4)C3)c12"
endpoint_name = "pIC50"
bound_sign = "="
experimental_result = 7.77

[[record]]
compound = "CCc1c(F)ccc2cc(O)cc(N3CCc4c(nc(OC[C@@]56CCCN5C[C@H](F)C6)nc4N4C[C@H](O)C[C@@H](C(N)=O)C4)C3)c12"
endpoint_name = "pIC50"
bound_sign = "≥"
experimental_result = 8.70

[[record]]
compound = "CCc1cccc2cccc(N3CCc4c(nc(OCC56CCCN5CCC6)nc4N4CCCCCC4)C3)c12"
endpoint_name = "pIC50"
bound_sign = "="
experimental_result = 6.74

[[record]]
compound = "CCc1c(F)ccc2cc(O)cc(N3CCc4c(nc(OC[C@@]56CCCN5C[C@H](F)C6)nc4N4CCCC5(CNC(=O)N5)C4)C3)c12 (some centres unmarked)"
endpoint_name = "pIC50"
bound_sign = "≥"
experimental_result = 8.70

[[record]]
compound = "CCc1cccc2cccc(N3CCc4c(nc(OCC56CCCN5CCC6)nc4N4Cc5ccnn5CC(O)C4)C3)c12 (centres unmarked)"
endpoint_name = "pIC50"
bound_sign = "="
experimental_result = 6.47

[[record]]
compound = "CCc1cccc2cccc(N3CCc4c(nc(OCC56CCCN5CCC6)nc4N4CCCN(C(=O)c5ccco5)CC4)C3)c12"
endpoint_name = "pIC50"
bound_sign = "="
experimental_result = 5.19

[[record]]
compound = "CCc1cccc2cccc(N3CCc4c(nc(OCC56CCCN5CCC6)nc4N4CCC(O)C(CO)CC4)C3)c12 (centres unmarked)"
endpoint_name = "pIC50"
bound_sign = "="
experimental_result = 7.14

[[record]]
compound = "CCc1c(F)ccc2cc(O)cc(N3CCc4c(nc(OC[C@@]56CCCN5C[C@H](F)C6)nc4N4CCOCC(n5cccn5)C4)C3)c12 (some centres unmarked)"
endpoint_name = "pIC50"
bound_sign = "="
experimental_result = 8.52

[[record]]
compound = "CCc1cccc2cccc(N3CCc4c(nc(OCC56CCCN5CCC6)nc4N4CCCC(C(C)O)C4)C3)c12 (centres unmarked)"
endpoint_name = "pIC50"
bound_sign = "="
experimental_result = 5.90

[[record]]
compound = "CCc1c(F)ccc2cc(O)cc(N3CCc4c(nc(OC[C@@]56CCCN5C[C@H](F)C6)nc4N4CCCC5(CNS(=O)(=O)N5)C4)C3)c12 (some centres unmarked)"
endpoint_name = "pIC50"
bound_sign = "="
experimental_result = 8.40

[[record]]
compound = "CCc1cccc2cccc(N3CCc4c(nc(OCC56CCCN5CCC6)nc4N4CCOCC(CO)C4)C3)c12 (centres unmarked)"
endpoint_name = "pIC50"
bound_sign = "="
experimental_result = 6.66

[[record]]
compound = "CCc1c(F)ccc2cc(O)cc(N3CCc4c(nc(OC[C@@]56CCCN5C[C@H](F)C6)nc4NCc4cccnc4N)C3)c12"
endpoint_name = "pIC50"
bound_sign = "≥"
experimental_result = 8.70

[[record]]
compound = "CCc1c(F)ccc2cc(O)cc(N3CCc4c(nc(OC[C@@]56CCCN5C[C@H](F)C6)nc4N4CCCC5(CNC5=O)C4)C3)c12 (some centres unmarked)"
endpoint_name = "pIC50"
bound_sign = "≥"
experimental_result = 8.70

[[record]]
compound = "C[C@@]1(O)CCCN(c2nc(OC[C@@]34CCCN3C[C@H](F)C4)nc3c2CCN(c2cc(O)cc4ccc(F)c(Cl)c24)C3)C1"
endpoint_name = "pIC50"
bound_sign = "≥"
experimental_result = 8.70

[[record]]
compound = "Oc1cc(N2CCc3c(nc(OC[C@@]45CCCN4C[C@H](F)C5)nc3N3CC4CC(O)CC3C4)C2)c2c(Cl)c(F)ccc2c1 (single isomer, unassigned) [Example 76]"
endpoint_name = "pIC50"
bound_sign = "="
experimental_result = 8.15

[[record]]
compound = "CCc1cccc2cccc(N3CCc4c(nc(OCC56CCCN5CCC6)nc4N4CCCn5nc(C)cc5C4)C3)c12"
endpoint_name = "pIC50"
bound_sign = "="
experimental_result = 5.79

[[record]]
compound = "CCc1c(F)ccc2cc(O)cc(N3CCc4c(nc(OCC56CCCN5CCC6)nc4N4CCCn5nc(C(=O)N(C)C)cc5C4)C3)c12"
endpoint_name = "pIC50"
bound_sign = "≥"
experimental_result = 8.70

[[record]]
compound = "CCc1cccc2cccc(N3CCc4c(nc(OCC56CCCN5CCC6)nc4N4CCCC(c5n[nH]cc5NC(C)=O)C4)C3)c12 (centres unmarked)"
endpoint_name = "pIC50"
bound_sign = "="
experimental_result = 5.38

[[record]]
compound = "CCc1cccc2cccc(N3CCc4c(nc(OCC56CCCN5CCC6)nc4N4CCCC(c5n[nH]c(C6CC6)n5)C4)C3)c12 (centres unmarked)"
endpoint_name = "pIC50"
bound_sign = "="
experimental_result = 6.02

[[record]]
compound = "CCc1cccc2cccc(N3CCc4c(nc(OCC56CCCN5CCC6)nc4N4CCCC(n5nccn5)C4)C3)c12 (centres unmarked)"
endpoint_name = "pIC50"
bound_sign = "="
experimental_result = 5.78

[[record]]
compound = "CCc1c(F)ccc2cc(O)cc(N3CCc4c(nc(OC[C@@]56CCCN5C[C@H](F)C6)nc4NCc4c[nH]c5ncccc45)C3)c12"
endpoint_name = "pIC50"
bound_sign = "="
experimental_result = 8.30

[[record]]
compound = "CCc1cccc2cccc(N3CCc4c(nc(OCC56CCCN5CCC6)nc4N4CCOCC(C)(O)C4)C3)c12 (centres unmarked)"
endpoint_name = "pIC50"
bound_sign = "="
experimental_result = 7.15

